System: S180 tumor
Assay: Biodistribution in tumor-bearing mice
Type: in vivo
Conditions: 120 min, i.v., mice bearing S180 tumor, mean ± SD
Experimental: The mice bearing S180 tumors were injected intravenously via the tail vein respectively with the solutions (0.1 mL, 370 kBq) containing the radioactive drugs of Examples 1-4. […] After dissection, the heart, liver, lung, kidney, spleen, bone, muscle, small intestine, blood and tumors were harvested, and measured for radioactivity with the γ-counter. The biodistribution individual organs or tissues was expressed as the percentage of the injected dose per gram of organ or tissue (% ID/g).
measurement-type: Thyroid
Remember to follow the number with its unit.

Before answering, review these 2 worked examples.
{"compound": "O=C(Cc1ccc(C[N+]#[C][99Tc+]([C]#[N+]Cc2ccc(CC(=O)NC3C(O)OC(CO)C(O)C3O)cc2)([C]#[N+]Cc2ccc(CC(=O)NC3C(O)OC(CO)C(O)C3O)cc2)([C]#[N+]Cc2ccc(CC(=O)NC3C(O)OC(CO)C(O)C3O)cc2)([C]#[N+]Cc2ccc(CC(=O)NC3C(O)OC(CO)C(O)C3O)cc2)[C]#[N+]Cc2ccc(CC(=O)NC3C(O)OC(CO)C(O)C3O)cc2)cc1)NC1C(O)OC(CO)C(O)C1O (stereo not shown) [^99mTc-4-CNMBDG]", "Thyroid": "0.03 ± 0.01 %ID/g"}
{"compound": "O=C(NC1C(O)OC(CO)C(O)C1O)c1cccc([N+]#[C][99Tc+]([C]#[N+]c2cccc(C(=O)NC3C(O)OC(CO)C(O)C3O)c2)([C]#[N+]c2cccc(C(=O)NC3C(O)OC(CO)C(O)C3O)c2)([C]#[N+]c2cccc(C(=O)NC3C(O)OC(CO)C(O)C3O)c2)([C]#[N+]c2cccc(C(=O)NC3C(O)OC(CO)C(O)C3O)c2)[C]#[N+]c2cccc(C(=O)NC3C(O)OC(CO)C(O)C3O)c2)c1 (stereo not shown) [^99mTc-3-CNBzDG]", "Thyroid": "0.01 ± 0.00 %ID/g"}

Any idea what its Thyroid is? The compound is O=C(NC1C(O)OC(CO)C(O)C1O)c1ccc(CC[N+]#[C][99Tc+]([C]#[N+]CCc2ccc(C(=O)NC3C(O)OC(CO)C(O)C3O)cc2)([C]#[N+]CCc2ccc(C(=O)NC3C(O)OC(CO)C(O)C3O)cc2)([C]#[N+]CCc2ccc(C(=O)NC3C(O)OC(CO)C(O)C3O)cc2)([C]#[N+]CCc2ccc(C(=O)NC3C(O)OC(CO)C(O)C3O)cc2)[C]#[N+]CCc2ccc(C(=O)NC3C(O)OC(CO)C(O)C3O)cc2)cc1 (stereo not shown) [^99mTc-4-CNPeDG]
0.003 ± 0.001 %ID/g

# iterate: O=C(NC1C(O)OC(CO)C(O)C1O)c1cccc(C[N+]#[C][99Tc+]([C]#[N+]Cc2cccc(C(=O)NC3C(O)OC(CO)C(O)C3O)c2)([C]#[N+]Cc2cccc(C(=O)NC3C(O)OC(CO)C(O)C3O)c2)([C]#[N+]Cc2cccc(C(=O)NC3C(O)OC(CO)C(O)C3O)c2)([C]#[N+]Cc2cccc(C(=O)NC3C(O)OC(CO)C(O)C3O)c2)[C]#[N+]Cc2cccc(C(=O)NC3C(O)OC(CO)C(O)C3O)c2)c1 (stereo not shown) [^99mTc-3-CNPEDG]
0.01 ± 0.00 %ID/g

###

Heart values by entry
Test system: S180 tumor
Assay: Biodistribution in tumor-bearing mice
Assay type: in vivo
Details: 30 min, i.v., mice bearing S180 tumor, n=5, mean ± SD
Remember to follow the number with its unit.

Before answering, review these 3 worked examples.
{"compound": "O=C(Cc1ccc(C[N+]#[C][99Tc+]([C]#[N+]Cc2ccc(CC(=O)NC3C(O)OC(CO)C(O)C3O)cc2)([C]#[N+]Cc2ccc(CC(=O)NC3C(O)OC(CO)C(O)C3O)cc2)([C]#[N+]Cc2ccc(CC(=O)NC3C(O)OC(CO)C(O)C3O)cc2)([C]#[N+]Cc2ccc(CC(=O)NC3C(O)OC(CO)C(O)C3O)cc2)[C]#[N+]Cc2ccc(CC(=O)NC3C(O)OC(CO)C(O)C3O)cc2)cc1)NC1C(O)OC(CO)C(O)C1O (stereo not shown) [^99mTc-4-CNMBDG]", "endpoint-result": "2.67 ± 0.41 % ID/g"}
{"compound": "O=C(NC1C(O)OC(CO)C(O)C1O)c1cccc([N+]#[C][99Tc+]([C]#[N+]c2cccc(C(=O)NC3C(O)OC(CO)C(O)C3O)c2)([C]#[N+]c2cccc(C(=O)NC3C(O)OC(CO)C(O)C3O)c2)([C]#[N+]c2cccc(C(=O)NC3C(O)OC(CO)C(O)C3O)c2)([C]#[N+]c2cccc(C(=O)NC3C(O)OC(CO)C(O)C3O)c2)[C]#[N+]c2cccc(C(=O)NC3C(O)OC(CO)C(O)C3O)c2)c1 (stereo not shown) [^99mTc-3-CNBzDG]", "endpoint-result": "1.44 ± 0.21 % ID/g"}
{"compound": "O=C(NC1C(O)OC(CO)C(O)C1O)c1cccc(C[N+]#[C][99Tc+]([C]#[N+]Cc2cccc(C(=O)NC3C(O)OC(CO)C(O)C3O)c2)([C]#[N+]Cc2cccc(C(=O)NC3C(O)OC(CO)C(O)C3O)c2)([C]#[N+]Cc2cccc(C(=O)NC3C(O)OC(CO)C(O)C3O)c2)([C]#[N+]Cc2cccc(C(=O)NC3C(O)OC(CO)C(O)C3O)c2)[C]#[N+]Cc2cccc(C(=O)NC3C(O)OC(CO)C(O)C3O)c2)c1 (stereo not shown) [^99mTc-3-CNPEDG]", "endpoint-result": "1.18 ± 0.12 % ID/g"}

Any idea what its Heart is? The compound is O=C(NC1C(O)OC(CO)C(O)C1O)c1ccc(CC[N+]#[C][99Tc+]([C]#[N+]CCc2ccc(C(=O)NC3C(O)OC(CO)C(O)C3O)cc2)([C]#[N+]CCc2ccc(C(=O)NC3C(O)OC(CO)C(O)C3O)cc2)([C]#[N+]CCc2ccc(C(=O)NC3C(O)OC(CO)C(O)C3O)cc2)([C]#[N+]CCc2ccc(C(=O)NC3C(O)OC(CO)C(O)C3O)cc2)[C]#[N+]CCc2ccc(C(=O)NC3C(O)OC(CO)C(O)C3O)cc2)cc1 (stereo not shown) [^99mTc-4-CNPeDG]
1.15 ± 0.04 % ID/g

###

Tested on: S180 tumor
Assay: Biodistribution in tumor-bearing mice
Type: in vivo
Conditions: 120 min, i.v., mice bearing S180 tumor, mean ± SD
measurement-type: Blood (% ID/g)
Write down the numeric answer in % ID/g and omit the unit.

Any idea what its Blood is? The compound is O=C(NC1C(O)OC(CO)C(O)C1O)c1ccc(C[N+]#[C][99Tc+]([C]#[N+]Cc2ccc(C(=O)NC3C(O)OC(CO)C(O)C3O)cc2)([C]#[N+]Cc2ccc(C(=O)NC3C(O)OC(CO)C(O)C3O)cc2)([C]#[N+]Cc2ccc(C(=O)NC3C(O)OC(CO)C(O)C3O)cc2)([C]#[N+]Cc2ccc(C(=O)NC3C(O)OC(CO)C(O)C3O)cc2)[C]#[N+]Cc2ccc(C(=O)NC3C(O)OC(CO)C(O)C3O)cc2)cc1 (stereo not shown) [^99mTc-CNPEDG, reference compound]
1.29

###

Tumor/muscle ratio values by entry
Test system: S180 tumor
Assay: Biodistribution in tumor-bearing mice
Assay type: in vivo
Details: 30 min, i.v., mice bearing S180 tumor, n=5, mean ± SD
Response field accepts a number only; no unit should be typed.

{"compound": "O=C(NC1C(O)OC(CO)C(O)C1O)c1cccc(C[N+]#[C][99Tc+]([C]#[N+]Cc2cccc(C(=O)NC3C(O)OC(CO)C(O)C3O)c2)([C]#[N+]Cc2cccc(C(=O)NC3C(O)OC(CO)C(O)C3O)c2)([C]#[N+]Cc2cccc(C(=O)NC3C(O)OC(CO)C(O)C3O)c2)([C]#[N+]Cc2cccc(C(=O)NC3C(O)OC(CO)C(O)C3O)c2)[C]#[N+]Cc2cccc(C(=O)NC3C(O)OC(CO)C(O)C3O)c2)c1 (stereo not shown) [^99mTc-3-CNPEDG]", "measured-target": "S180 tumor", "endpoint-result": 3.49}
{"compound": "O=C(Cc1ccc(C[N+]#[C][99Tc+]([C]#[N+]Cc2ccc(CC(=O)NC3C(O)OC(CO)C(O)C3O)cc2)([C]#[N+]Cc2ccc(CC(=O)NC3C(O)OC(CO)C(O)C3O)cc2)([C]#[N+]Cc2ccc(CC(=O)NC3C(O)OC(CO)C(O)C3O)cc2)([C]#[N+]Cc2ccc(CC(=O)NC3C(O)OC(CO)C(O)C3O)cc2)[C]#[N+]Cc2ccc(CC(=O)NC3C(O)OC(CO)C(O)C3O)cc2)cc1)NC1C(O)OC(CO)C(O)C1O (stereo not shown) [^99mTc-4-CNMBDG]", "measured-target": "S180 tumor", "endpoint-result": 3.52}
{"compound": "O=C(NC1C(O)OC(CO)C(O)C1O)c1cccc([N+]#[C][99Tc+]([C]#[N+]c2cccc(C(=O)NC3C(O)OC(CO)C(O)C3O)c2)([C]#[N+]c2cccc(C(=O)NC3C(O)OC(CO)C(O)C3O)c2)([C]#[N+]c2cccc(C(=O)NC3C(O)OC(CO)C(O)C3O)c2)([C]#[N+]c2cccc(C(=O)NC3C(O)OC(CO)C(O)C3O)c2)[C]#[N+]c2cccc(C(=O)NC3C(O)OC(CO)C(O)C3O)c2)c1 (stereo not shown) [^99mTc-3-CNBzDG]", "measured-target": "S180 tumor", "endpoint-result": 3.28}

# input for lookup
Any idea what its Tumor/muscle ratio is? The compound is O=C(NC1C(O)OC(CO)C(O)C1O)c1ccc(CC[N+]#[C][99Tc+]([C]#[N+]CCc2ccc(C(=O)NC3C(O)OC(CO)C(O)C3O)cc2)([C]#[N+]CCc2ccc(C(=O)NC3C(O)OC(CO)C(O)C3O)cc2)([C]#[N+]CCc2ccc(C(=O)NC3C(O)OC(CO)C(O)C3O)cc2)([C]#[N+]CCc2ccc(C(=O)NC3C(O)OC(CO)C(O)C3O)cc2)[C]#[N+]CCc2ccc(C(=O)NC3C(O)OC(CO)C(O)C3O)cc2)cc1 (stereo not shown) [^99mTc-4-CNPeDG]
4.16
